The following molecules are shown together with reported MIC values.
System: MtbH37Rv pncA-knock out strain
Experiment: microbe, parasite or virus in culture
Assay type: cell-based, Mycobacterium tuberculosis
Conditions: Mycobacterium tuberculosis, pH 6.7; read-out: MIC 6.7 KO

See these solved cases before continuing.
> print(dat)
                        molecule                     test.system  observed
1       N#Cc1cncc([B-](F)(F)F)c1  MtbH37Rv pncA-knock out strain  > 200 µM
2  F[B-](F)(F)c1cncc(C(F)(F)F)c1  MtbH37Rv pncA-knock out strain  > 200 µM
3         FB(F)c1cncc(N2CCCC2)n1  MtbH37Rv pncA-knock out strain  > 200 µM

We next turn to a different molecule, shown below.
Data point: NC(=O)c1cnccn1 [Pyrazinamide (PZA), Pyrazinamide, reference compound] ; MIC = > 400 µM

###

Tested on: Vero cells
Assay: Mammalian cell toxicity assay (CellTiter 96 Non-Radioactive Cell Proliferation Assay)
Type: cell-based
Conditions: Table 1; Vero cells, 72 hours; read-out: Vero cell IC50
quantity-measured: IC50

See these solved cases before continuing.
> print(dat)
                                   compound  observed
1  Fc1cncc([B-](F)(F)F)c1.[K+] [Compound 4-2]  > 100 µM
2  COc1cncc([B-](F)(F)F)n1.[K+] [Compound 2-5]  > 100 µM

Data point: F[B-](F)(F)c1cncc(Cl)c1.[K+] [Compound 5-2] ; IC50 = > 100 µM

###

Tested on: Vero cells
Assay: Mammalian cell toxicity assay (CellTiter 96 Non-Radioactive Cell Proliferation Assay)
Format: cell-based
Details: Chlorocebus sabaeus; Table 1; Vero cells, 72 hours; read-out: Vero cell IC50
The following molecules are shown together with reported IC50 values.

Data point: F[B-](F)(F)c1cncc(C(F)(F)F)c1 [Compound 12-3] ; IC50 = > 100 µM

Data point: NC(=O)c1cnccn1 [Pyrazinamide (PZA), Pyrazinamide, reference compound] ; IC50 = > 100 µM
